Test: M. tuberculosis growth inhibition with meropenem, dose response, H37Rv, set 2 (AID 504702);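 note: growth read by Alamar Blue after 7 days plus overnight incubation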
Conditions: M. tuberculosis H37Rv with meropenem, growth inhibition; at 25 µM (top of the series)
Calls of active or inactive are those of the source. The rule behind the calls is not given here.
observable: growth inhibition

- CCOc1ccc2nc(NC(=O)Cc3ccc(OC)cc3)sc2c1: -9.77% (inactive)
- COc1ccc2nc(NC(=O)C(C)Oc3ccccc3)sc2c1 (centres undefined): -2.23% (inactive)
- c1ccc(-c2cc(N3CCOCC3)nc3ccccc23)cc1: 6.06% (inactive)
- CC(Oc1ccc(Cl)cc1)C(=O)Nc1nc2ccccc2s1 (centres undefined): -2.09% (inactive)

---

Test system: M. tuberculosis H37Rv with meropenem, growth inhibition
Test: M. tuberculosis growth inhibition with meropenem, dose response, H37Rv, set 2 (AID 504702);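 note: growth read by Alamar Blue after 7 days plus overnight incubation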
Below, each entry is listed with its recorded IC50.
observable: IC50

- Cc1ccc(OCC(=O)Nc2cccc3ccccc23)c(C)c1: 20.5 µM
- COc1ccc(Cl)cc1C(=O)Nc1nc2ccccc2[nH]1: 16.2 µM
- Cc1ccccc1C(=O)Nc1nc2ccccc2[nH]1: 8.75 µM
- c1ccc(Nc2ncnc3c2oc2ccccc23)cc1: 5.29 µM
- Cc1cccnc1NC(=S)NC(=O)c1cncc(Br)c1: 2.71 µM
- O=C(Nc1nc2ccccc2[nH]1)c1ccc(Cl)c(Cl)c1: 0.81 µM
- CCOc1ccc2c(c1)c(C(C)=O)c(C)n2-c1ccccc1Cl: 13.6 µM
- CCOc1ccc2c(c1)cc(C)n2-c1ccccc1: 11.5 µM
- O=C(OC(C(=O)Nc1ccc(Cl)cc1C(F)(F)F)c1ccccc1)C1=COCCO1 (centres undefined): 3.17 µM
- CC(=O)c1c(C)n(-c2ccccc2)c2ccccc12: 11.6 µM
- O=C(COC(=O)C1=COCCO1)Nc1ccc2c(c1)OCO2: 9.76 µM
- COC(=O)c1c(C)n(-c2ccccc2)c2ccc(O)cc12: 8.43 µM
- CCc1ccc2nc(/N=C(\N)NC(=O)c3ccccc3)nc(C)c2c1: 0.82 µM
- COc1ccc(C(=O)Nc2ccc3nc(N4CCCCC4)cc(C)c3c2)c(OC)c1: 17.6 µM
- Cc1cc(C)c(OCC(=O)Nc2nc3ccccc3[nH]2)c(C)c1: 5.55 µM
- CN(NC(=O)c1c(Cl)cccc1Cl)c1cccc(Cl)n1: 15.5 µM
- CCOc1ccc2c(c1)c(CC)c(C)n2-c1ccccc1: 4.42 µM
- Cc1onc(-c2c(Cl)cccc2Cl)c1/C(N)=N/OC(=O)C1CC1: 1.47 µM
- O=C(COc1ccc2ccccc2c1)Nc1nc2ccccc2[nH]1: 8.87 µM
- N/C(=N\c1nc2ccccc2o1)NC(=O)c1ccc(F)cc1: 9.64 µM
- S=C(Nc1ccccc1)Nc1ccc(Cl)cn1: 6.64 µM
- O=C(CSc1n[nH]c(=O)n1C1CC1)c1ccc2c(c1)OCCO2: 4.57 µM
- COc1cccc(NC(=S)Nc2cc(C)cc(C)n2)c1: 7.2 µM
- CCOc1ccc2c(c1)c(C(C)=O)c(C)n2-c1ccccc1C: 3.43 µM

---

Assay: M. tuberculosis growth inhibition with meropenem, dose response, H37Rv, set 2 (AID 504702);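 note: growth read by Alamar Blue after 7 days plus overnight incubation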
Settings: M. tuberculosis H37Rv with meropenem, growth inhibition; at 25 µM (top of the series)
observable: growth inhibition (%)

* COC(=O)c1c(C)[nH]c2ccccc12 | -4.94
* CCCN1CC(O)=C(c2nc3ccccc3s2)C1=N | 1.43
* O=C(COc1ccc2c3c(c(=O)oc2c1)CCC3)Nc1nc2ccccc2[nH]1 | -4.95
* CCOc1ccc(NC(=O)COc2ccc(C)cc2C)cc1 | -3.23
* Cc1ccccc1OCC(=O)Nc1nnn(C)n1 | 0.35
* CCC(=O)N/C(N)=N/c1nc2ccccc2o1 | -1.89
* Cc1ccccc1OCC(=O)Nc1ncccn1 | 3.04
* N/C(=N\c1nc2ccccc2o1)NC(=O)C1CC1 | 9.34
* COc1ccc2nc(NC(=O)COc3ccccc3)sc2c1 | -1.31
* Cc1ccc(OCC(=O)Nc2nc3ccc(F)cc3s2)cc1 | -0.17
* COc1ccccc1C(=O)N/C(N)=N/c1nc2ccccc2o1 | 0.18
* CCOc1ccc2nc(NC(=O)COc3ccccc3)sc2c1 | -8.57
* CCOc1ccc2c(ccn2-c2ccccc2)c1 | -1.15
* CCOc1ccc2c(c1)c(C(C)=O)c(C)n2Cc1ccco1 | -2.87
* CC(C)(Oc1ccc(Cl)cc1)C(=O)Nc1nc2ccccc2s1 | 1.22
* O=C(O)CCC(=O)Nc1nc2ccccc2s1 | -2.73
* N/C(=N\c1nc2ccccc2o1)NC(=O)c1ccccc1 | 2.3
* Cc1ccc(OCC(=O)Nc2ccc(Cl)cc2)c(C)c1 | -3.91
* Cc1ccc(OCC(=O)Nc2nc3c(Cl)cccc3s2)cc1 | -2.68
* CCOc1ccc2nc(NC(=O)c3cnccn3)sc2c1 | 20.9
* Cc1cc(C)c(OCC(=O)Nc2nc3ccccc3s2)c(Cl)c1 | -6.55
* Cc1ccc2sc(NC(=O)COc3ccccc3)nc2c1C | 14.4
* Cc1ccc(OCC(=O)Nc2nnn(C)n2)c(C)c1 | -3.74
* O=C(COc1ccccc1Cl)Nc1nc2ccccc2s1 | -4.37
* CCOc1ccc2nc(NC(=O)COc3ccc(F)cc3)sc2c1 | -3.93
* N/C(=N\c1nc2cc(Cl)ccc2o1)NC(=O)c1ccccc1 | -0.66
* Cc1ccc2oc(/N=C(\N)NC(=O)c3ccccc3)nc2c1 | 5.09
* Cc1cccc(C)c1OCC(=O)Nc1nc2ccccc2s1 | -9.19
* Cc1cc2cc(Cl)ccc2[nH]1 | 0.31
* Cc1ccc(OCC(=O)Nc2cccc3ncccc23)c(C)c1 | 1.76
* Cc1cc(C)c(OCC(=O)Nc2nc3ccc(C)cc3s2)c(C)c1 | -0.38
* CC(=O)c1c(C)n(-c2ccccc2C)c2ccc(O)cc12 | -1.1
* Cc1ccc(OC(C)C(=O)Nc2ncccn2)c(C)c1 (stereo not given) | 3.48
* Cc1ccccc1OCC(=O)Nc1noc(-c2ccccc2)n1 | -4.18
* Oc1ccc2[nH]ccc2c1 | 3.81
* Cc1ccc(C(C)C)c(OCC(=O)Nc2nc3ccccc3s2)c1 | -4.96
* CC(C)(C)c1ccc(OCC(=O)Nc2nc3ccccc3s2)cc1 | -9.97
* CCOc1ccc2nc(NC(=O)C(C)Oc3ccccc3F)sc2c1 (stereo not given) | 2.03
* O=C(COc1cccc2ccccc12)Nc1nc2ccccc2s1 | -6.75
* O=C(Nc1nc2ccccc2[nH]1)c1cc2cc(Br)ccc2o1 | -2.41
* CC(C)Cn1c2c(c(O)c(C(=O)Nc3nccs3)c1=O)CCCC2 | -0.17
* O=C(Cc1csc(-c2ccccc2F)n1)Nc1nc2ccccc2[nH]1 | 1.69
* Cc1cc2cc(Cl)ccc2n1-c1ccccc1 | 16.5
* CC(=O)c1c(C)n(-c2ccccc2)c2ccc(OC(C)C)cc12 | 8.61
* CCCOc1ccc2c(c1)c(C(C)=O)c(C)n2-c1ccccc1 | 20.4

Reference source: PubChem BioAssay AID504702
